biological target: T1, Human SIRPαV1 (NP_542970.1), Extracellular Domain + His-Tag (human, UniProt P78324 31-373); assay: SPR, antibody captured on Protein A/G, ECD-His analyte, 1:1 fit
T1 construct: also called huSIRPαV1; hSIRPαV1; not shown: His-Tag
T1 sequence (P78324 other isoform, or with tags, fused parts or gaps): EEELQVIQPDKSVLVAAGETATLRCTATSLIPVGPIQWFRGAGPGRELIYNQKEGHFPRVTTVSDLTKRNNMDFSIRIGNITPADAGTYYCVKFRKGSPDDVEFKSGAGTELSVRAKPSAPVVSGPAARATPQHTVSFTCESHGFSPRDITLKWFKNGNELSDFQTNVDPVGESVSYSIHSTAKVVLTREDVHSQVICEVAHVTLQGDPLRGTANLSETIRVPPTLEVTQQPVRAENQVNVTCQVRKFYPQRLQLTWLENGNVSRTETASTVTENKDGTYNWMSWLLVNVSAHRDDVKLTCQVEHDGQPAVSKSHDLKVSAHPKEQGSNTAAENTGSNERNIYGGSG
# label = Fulfilled if kon < 700000 M⁻¹ s⁻¹ else Not fulfilled

Please let me know if Antibody E12 (antibody, human IgG1, kappa, L234A L235A, V domains shown) VH: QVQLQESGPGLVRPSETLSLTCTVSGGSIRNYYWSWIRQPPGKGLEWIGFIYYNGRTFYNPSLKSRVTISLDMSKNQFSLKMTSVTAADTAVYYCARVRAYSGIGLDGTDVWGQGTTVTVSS VL: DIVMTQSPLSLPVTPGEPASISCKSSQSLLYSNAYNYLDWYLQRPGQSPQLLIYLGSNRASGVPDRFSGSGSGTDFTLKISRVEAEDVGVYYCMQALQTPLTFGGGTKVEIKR shows kon below 700000 M⁻¹ s⁻¹.
Fulfilled

Could you please tell me whether kon recorded for Antibody A3 (antibody, human IgG1, kappa, L234A L235A, V domains shown) VH: EVQLVESGGGLVQPGGSLRLSCAASGFTLSSYDMHWVRQATGKGLEWVSAIGTAGDTYYTGSVKGRFTISRENAKNSLYLQMNSLRASDTAVYYCVRGGVWDDAFDIWGQGTMVTVSS VL: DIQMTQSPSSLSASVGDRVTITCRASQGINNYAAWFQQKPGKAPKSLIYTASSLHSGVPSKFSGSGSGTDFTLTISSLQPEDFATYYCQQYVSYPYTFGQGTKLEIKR is less than 700000 M⁻¹ s⁻¹?
Not fulfilled

# check: kon < 700000 M⁻¹ s⁻¹ for Antibody A6 (antibody, human IgG1, kappa, L234A L235A, V domains shown) VH: EVQLVESGGGLVQPGGSLRLSCAASGFTLSSYDMHWVRQAPGKGLEWVSAIGTAGDTYYTGSVKGRFTISRENAKNSLYLQMNSLRAEDTAVYYCVRGGVWDDAFDIWGQGTMVTVSS VL: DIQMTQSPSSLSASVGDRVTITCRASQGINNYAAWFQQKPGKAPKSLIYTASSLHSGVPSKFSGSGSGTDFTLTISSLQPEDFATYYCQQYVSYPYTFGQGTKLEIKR
Not fulfilled

In plain terms, does Antibody E14 (antibody, human IgG1, kappa, L234A L235A, V domains shown) VH: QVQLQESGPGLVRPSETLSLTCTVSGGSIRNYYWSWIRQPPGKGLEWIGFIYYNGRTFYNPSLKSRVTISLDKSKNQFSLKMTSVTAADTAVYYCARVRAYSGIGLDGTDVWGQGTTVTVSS VL: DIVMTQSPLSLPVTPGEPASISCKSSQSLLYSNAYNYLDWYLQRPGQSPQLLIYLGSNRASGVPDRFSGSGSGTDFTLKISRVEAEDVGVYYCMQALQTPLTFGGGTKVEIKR come in under 700000 M⁻¹ s⁻¹ for kon?
Fulfilled

For Antibody A9 (antibody, human IgG1, kappa, L234A L235A, V domains shown) VH: EVQLVESGGGLVQPGGSLRLSCAASGFTLSSYDMHWVRQAPGKGLEWVSAIGTAGDTYYTGSVKGRFTISRENAKNSLYLQMNSLRADDTAVYYCVRGGVWDDAFDIWGQGTMVTVSS VL: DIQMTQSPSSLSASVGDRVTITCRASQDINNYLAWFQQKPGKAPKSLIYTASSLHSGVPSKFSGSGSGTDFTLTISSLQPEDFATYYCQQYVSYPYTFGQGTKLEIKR , is the recorded kon below the cut-off of 700000 M⁻¹ s⁻¹?
Fulfilled

# strict comparison: is reported kon < 700000 M⁻¹ s⁻¹? input = Antibody A1 (antibody, human IgG1, kappa, L234A L235A, V domains shown) VH: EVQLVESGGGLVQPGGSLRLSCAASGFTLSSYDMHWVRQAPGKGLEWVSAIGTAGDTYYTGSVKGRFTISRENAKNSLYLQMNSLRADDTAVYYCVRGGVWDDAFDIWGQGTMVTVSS VL: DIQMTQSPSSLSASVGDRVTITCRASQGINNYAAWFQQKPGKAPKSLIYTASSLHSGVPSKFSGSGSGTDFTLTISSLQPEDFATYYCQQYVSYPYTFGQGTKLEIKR
Not fulfilled

kon under 700000 M⁻¹ s⁻¹? Item: Antibody E16 (antibody, human IgG1, kappa, L234A L235A, V domains shown) VH: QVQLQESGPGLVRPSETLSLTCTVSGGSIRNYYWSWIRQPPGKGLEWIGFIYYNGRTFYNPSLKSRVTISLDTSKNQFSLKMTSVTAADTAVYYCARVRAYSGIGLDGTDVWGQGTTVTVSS VL: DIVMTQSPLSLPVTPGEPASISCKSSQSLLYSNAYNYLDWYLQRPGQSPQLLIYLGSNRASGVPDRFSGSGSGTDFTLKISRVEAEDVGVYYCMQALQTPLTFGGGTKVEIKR
Fulfilled

Decide: kon of Antibody E19 (antibody, human IgG1, kappa, L234A L235A, V domains shown) VH: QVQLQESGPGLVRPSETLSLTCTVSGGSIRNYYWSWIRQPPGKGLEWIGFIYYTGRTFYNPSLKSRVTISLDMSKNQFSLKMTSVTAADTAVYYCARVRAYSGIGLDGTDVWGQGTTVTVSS VL: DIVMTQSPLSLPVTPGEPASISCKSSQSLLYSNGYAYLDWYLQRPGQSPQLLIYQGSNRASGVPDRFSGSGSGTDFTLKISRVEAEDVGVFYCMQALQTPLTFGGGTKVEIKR strictly below 700000 M⁻¹ s⁻¹?
Fulfilled
